Every entry's value here was drawn from patent US12612360B2.

Each entry below carries its recorded DC50.
# TARGET_DESC: ERα (Homo sapiens, UniProt P03372)
# Construct: host or cells: MCF7
# Sequence (P03372 1-595): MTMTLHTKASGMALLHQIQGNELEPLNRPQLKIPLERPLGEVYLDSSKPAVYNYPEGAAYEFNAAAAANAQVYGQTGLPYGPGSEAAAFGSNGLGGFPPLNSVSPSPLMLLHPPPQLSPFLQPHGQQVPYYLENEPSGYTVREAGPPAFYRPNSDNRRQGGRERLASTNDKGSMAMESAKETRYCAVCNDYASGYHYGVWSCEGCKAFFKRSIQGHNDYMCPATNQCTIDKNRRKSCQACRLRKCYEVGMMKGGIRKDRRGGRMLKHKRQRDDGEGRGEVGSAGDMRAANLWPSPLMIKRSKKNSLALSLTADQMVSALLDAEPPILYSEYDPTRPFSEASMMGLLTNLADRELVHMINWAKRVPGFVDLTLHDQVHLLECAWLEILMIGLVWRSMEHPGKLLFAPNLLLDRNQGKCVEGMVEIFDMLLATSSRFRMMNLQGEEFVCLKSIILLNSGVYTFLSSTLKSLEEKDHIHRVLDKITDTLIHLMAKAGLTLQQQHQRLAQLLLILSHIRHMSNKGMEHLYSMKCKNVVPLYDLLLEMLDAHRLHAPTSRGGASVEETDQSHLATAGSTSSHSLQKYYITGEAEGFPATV
# METHOD_NOTES: Estrogen receptor degradation activity: breast cancer cell ERα in cell western assay (MCF7 cells)
# Format: cell-based
# CONDITION_LABEL: 4 hours post compound addition, concentration which degrades 50% of the estrogen receptor, read-out: Degradation IC50
Please respond with the number in pM and leave the unit unwritten.

// solved cases for DC50 follow
>  <COMPOUND>
Cc1c(C#N)cccc1C1=C(c2ccc(C=C3CN(CCCF)C3)cc2)c2ccc(C(=O)O)cc2CCC1

>  <UNIT_LABEL>
pM

>  <DC50>
900

$$$$
>  <COMPOUND>
Cc1cc(C2=C(c3ccc(F)cc3C)CCCc3cc(C(=O)O)ccc32)ccc1C=C1CN(CCCF)C1.Cl [Example 44, hydrochloride]

>  <UNIT_LABEL>
pM

>  <DC50>
400

$$$$
>  <COMPOUND>
Cc1cc(F)ccc1C1=C(c2ccc(C=C3CN(CCCF)C3)c(F)c2F)c2ccc(C(=O)O)cc2CCC1

>  <UNIT_LABEL>
pM

>  <DC50>
200

$$$$
>  <COMPOUND>
Cl.O=C(O)c1ccc2c(c1)CCCC(c1ccc(C(F)(F)F)cc1)=C2c1ccc(C=C2CN(CCCF)C2)cc1 [Example 185, hydrochloride]

>  <UNIT_LABEL>
pM

>  <DC50>
500

$$$$
>  <COMPOUND>
Cc1c(C2=C(c3ccc(F)cc3F)CCCc3cc(C(=O)O)ccc32)ccc(C=C2CN(CCCF)C2)c1F.Cl [Example 17, hydrochloride]

>  <UNIT_LABEL>
pM

>  <DC50>
500

$$$$
>  <COMPOUND>
CC(=C1CN(CCCF)C1)c1ccc(C2=C(c3ccc(Cl)cc3Cl)CCCc3cc(C(=O)O)ccc32)cc1

>  <UNIT_LABEL>
pM

>  <DC50>
300

$$$$

Now examine the next entry.
Recorded DC50 of `COc1ccc(C2=C(c3ccc(C=C4CN(CCCF)C4)cc3)c3ccc(C(=O)O)cc3CCC2)c(Cl)c1` , please.
1100
